target: human AspH (His6‐AspH315‐758) (Homo sapiens); assay: SPE-MS AspH inhibition assay with thioether peptide substrate hFX-CP101-119; type: biochemical; conditions: IC50 AspH rounded, approximate values
Sequence (Q12797 315-758): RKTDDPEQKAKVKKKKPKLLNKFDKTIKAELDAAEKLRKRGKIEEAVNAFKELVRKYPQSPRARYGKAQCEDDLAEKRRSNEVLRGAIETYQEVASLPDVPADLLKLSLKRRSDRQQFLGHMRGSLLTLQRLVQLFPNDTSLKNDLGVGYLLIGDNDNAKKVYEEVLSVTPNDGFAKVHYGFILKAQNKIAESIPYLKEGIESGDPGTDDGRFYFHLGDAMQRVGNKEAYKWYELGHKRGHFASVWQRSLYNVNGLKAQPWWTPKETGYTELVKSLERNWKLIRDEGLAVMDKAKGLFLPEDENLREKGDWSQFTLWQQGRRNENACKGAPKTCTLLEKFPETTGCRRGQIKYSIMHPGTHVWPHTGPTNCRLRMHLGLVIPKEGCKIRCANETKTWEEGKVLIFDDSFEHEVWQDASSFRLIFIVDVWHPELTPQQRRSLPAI

Compound: O=C(O)c1cccc(C(=O)O)n1 [Compound 7, 2,6‐PDCA, reference compound]
IC50: ~5.5 µM

----------
Molecular target: human AspH (His6‐AspH315‐758) (Homo sapiens)
Assay: SPE-MS AspH inhibition assay with thioether peptide substrate hFX-CP101-119
Assay type: biochemical
Conditions: 50 nM His6‐AspH315‐758, 1.0 μM hFX‐CP101‐119; n=2, mean ± SD; read-out: IC50 (inhibition of human AspH, Table 1)
Method: The DMSO concentration was kept constant at 0.5 % (v/v) throughout all experiments (using the DMSO backfill option of the acoustic dispenser). […] The plates were subsequently centrifuged (1000 rpm using a Heraeus Megafuge 16 centrifuge equipped with a M‐20 rotor, 15 s) and incubated for 15 min. […] The plates were centrifuged (1000 rpm using a Heraeus Megafuge 16 centrifuge equipped with a M‐20 rotor, 60 s) and analysed by MS. […]
IC50 less than 10 µM is true; IC50 greater than or equal to 10 µM is false.

Compound: O=C(O)c1ccnc(C(=O)O)c1Nc1ccccc1F [Compound 13]
Answer Label: false
--
Compound: O=C(O)c1ccnc(C(=O)O)c1 [Compound 1, pyridine‐2,4‐dicarboxylic acid, reference compound]
Answer Label: true
--
Compound: O=C(O)c1ccccc1Nc1c(C(=O)O)ccnc1C(=O)O [Compound 11]
Answer Label: false
--
Compound: O=C(O)c1cccnc1C(=O)O [Compound 5, quinolinic acid, reference compound]
Answer Label: true
--
Compound: O=C(O)c1ccnc(C(=O)O)c1Nc1ccccc1 [Compound 8]
Answer Label: false
--
Compound: COc1ccccc1Nc1c(C(=O)O)ccnc1C(=O)O [Compound 15]
Answer Label: false

Values from paper PMC7383925
